Cited source for all entries: PubChem BioAssay

Parameter inhibition of aggregation: see the listing below.
# Measurement protocol: reduction of polyQ htt aggregates in cells – imaging, exon1htt(103Q)mCFP cells, high-content imaging, primary screen (AID 483);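 further: compound exposure lasted 3 days before fixation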
# Experimental context: exon1htt(103Q)mCFP cell line, aggregate imaging, at 2 µM; stronger effect = higher value
Give your result in % as a bare value.

- Compound: "CC(C)(C)n1nnnc1CN1CCN(C2CCCC2)CC1"
  Quantity name: "inhibition of aggregation"
  Experimental value: 9.7
- Compound: "CC(C)NC(=O)CSc1nc2ccccc2n1-c1ccccc1"
  Quantity name: "inhibition of aggregation"
  Experimental value: -2.9
- Compound: "COCCNC(=O)C(c1ccncc1)N(C(=O)Cn1nnc2ccccc21)c1ccc(OC)cc1 (stereo unspecified)"
  Quantity name: "inhibition of aggregation"
  Experimental value: -3.2
- Compound: "Cc1csc(SCCn2c(N3CCCC3)nc3c2c(=O)[nH]c(=O)n3C)n1"
  Quantity name: "inhibition of aggregation"
  Experimental value: -7.1

# input Param item = C=CCn1c(SCC(=O)O)nnc1-c1cccc(Cl)c1 ; retrieve measured inhibition of aggregation.
# output -0.4

# input Param item = Cc1nc2c(-c3ccccc3)c(C)nn2c(C)c1CCC(=O)NCc1ccco1 ; retrieve measured inhibition of aggregation.
# output -8.9

---

Parameter nuclei count: see the listing below.
# Measurement protocol: reduction of polyQ htt aggregates in cells – imaging, exon1htt(103Q)mCFP cells, high-content imaging, primary screen (AID 483);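 further: compound exposure lasted 3 days before fixation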;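 on nuclei count: percent of the per-plate median nuclei count of sample wells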
# Experimental context: exon1htt(103Q)mCFP cell line, aggregate imaging, at 2 µM; measured here: cell count, toxicity
Give your result in % as a bare value.

Answered cases to consult:
- Compound: "COc1ccc(NC(=O)c2cc(C(C)C)on2)c(OC)c1"
  Measurement unit: "%"
  nuclei count: 100
- Compound: "CCN1CCN(C(=O)C2CCN(C(=O)c3cc4sccc4n3CC)CC2)CC1"
  Measurement unit: "%"
  nuclei count: 85.3
- Compound: "O=C(CN1C(=O)c2ccccc2C1=O)Nc1ccccc1C(=O)N1CCCC1"
  Measurement unit: "%"
  nuclei count: 112
- Compound: "Cc1ccc(C(=O)CC2(O)C(=O)N(C)c3ccc(Br)cc32)c(C)c1 (stereo not drawn)"
  Measurement unit: "%"
  nuclei count: 107
- Compound: "CCOC(=O)CN1CC23C=CC(O2)C(C(=O)Nc2ccc(OC)cc2OC)C3C1=O (stereo not drawn)"
  Measurement unit: "%"
  nuclei count: 81.1

# input Param item = COc1ccc(CCNC(=O)C2=COCCO2)cc1 ; retrieve measured nuclei count.
# output 90.3

# input Param item = FC(F)(F)c1cc(-c2ccco2)nc(N2CCOCC2)n1 ; retrieve measured nuclei count.
# output 89

# input Param item = Cc1noc(C)c1CSc1nc2ccccc2s1 ; retrieve measured nuclei count.
# output 113

# input Param item = CC1(C)NC(=O)N(CC(O)CN2CCCCC2)C1=O (stereo not drawn) ; retrieve measured nuclei count.
# output 93.2

# input Param item = CCc1nnc(NC(=O)CSc2nnc(CSc3nc(C)cc(C)n3)n2CC)s1 ; retrieve measured nuclei count.
# output 128

# input Param item = Cc1cc(=O)n2nc(N3CCC(C(=O)N4CCN(Cc5ccccc5)CC4)CC3)sc2n1 ; retrieve measured nuclei count.
# output 113

# input Param item = CCS(=O)(=O)c1nc2ccccc2n1Cc1ccccc1Cl ; retrieve measured nuclei count.
# output 115

# input Param item = O=C(CCn1c(=S)[nH]c2cc3c(cc2c1=O)OCO3)N1CCN(C2CCCCC2)CC1 ; retrieve measured nuclei count.
# output 129
